test system: OCI-AML2; assay: cell viability relative to vehicle control; higher = less cytotoxic; conditions: 10 µM; SRSF2 genotype: P95H/wt;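 further: after 48 h exposure read by CellTiter-Glo luminescence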
Counter-ions that a name gives are not always drawn.
value type: cell viability (%)
Form entry: value (%) — number only.

Use these answered entries as a reference point.
molecule	value type	output unit	value
CC(=O)O[C@@]12CO[C@@H]1C[C@H](O)[C@@]1(C)C(=O)[C@H](O)C3=C(C)[C@@H](OC(=O)[C@H](O)[C@@H](NC(=O)c4ccccc4)c4ccccc4)C[C@@](O)([C@@H](OC(=O)c4ccccc4)[C@H]21)C3(C)C	cell viability	%	10.3
CC(C)NCC(O)c1ccccc1Cl (stereo unspecified) [Clorprenaline HCL]	cell viability	%	108
C=CC[C@]1(O)CC[C@H]2[C@@H]3CCC4=CC(=O)CCC4=C3C=C[C@@]21C	cell viability	%	109

Could you share which cell viability value was measured for COC(=O)C1=CCCN(C)C1 ?
92

Another molecule to check: COc1ccc(/C=C/c2cc(OC)cc(OC)c2)cc1 [3,4',5-Trimethoxy-trans-stilbene]
38.2

Another molecule to check: CN1[C@@H]2CC[C@H]1C[C@@H](OC(=O)C(CO)c1ccccc1)C2 (stereo partly specified) [Atropine sulfate monohydrate]
100

====

tested on: OCI-AML2; experiment: cell viability relative to vehicle control; higher = less cytotoxic; details: 10 µM; SRSF2 genotype: wt/wt
Where a name gives a salt, the structure may show the parent alone.
value type: cell viability (%)
Form entry: value (%) — number only.

Use these answered entries as a reference point.
> print(dat)
                                   compound      value.type  value
1  C=C[C@@]12CN(C)[C@H]3C[C@]14C(=Nc1ccccc14)[C@@H]1C[C@@H]2[C@@H]3CO1  cell viability    101
2  CCN(CC)CCOC(=O)C(O)(c1ccccc1)c1ccccc1 [Benactyzine hydrochloride]  cell viability   92.6
3                         CC(C)c1ccc(CO)cc1  cell viability   97.4
4  CCNC(=O)C[C@@H]1N=C(c2ccc(Cl)cc2)c2cc(OC)ccc2-n2c(C)nnc21  cell viability   37.5
5  O=S(=O)(CC1CS1)c1ccc(Oc2ccccc2)cc1 (stereo unspecified)  cell viability   14.1

Now consider the entry below.
Could you share which cell viability value was measured for CC(C)=CCCC(C)(O)C1CCC2(C)C1C(O)CC1C3(C)CCC(O)C(C)(C)C3C(OC3OC(CO)C(O)C(O)C3O)CC12C [(20R)-Ginsenoside Rh1] ?
108

====

test system: MARIMO; assay: cell viability relative to vehicle control; higher = less cytotoxic; conditions: 10 µM; SRSF2 genotype: SRSF2 P95H/wt
Where a name gives a salt, the structure may show the parent alone.
# cell viability per record follows
Form entry: value (%) — number only.

Use these answered entries as a reference point.
> print(dat)
                                    compound      value.type  output.unit  value
 1                  O=c1ccc2c(O)c3ccoc3cc2o1  cell viability            %    105
 2  Cc1cc(SCc2sc(-c3ccc(C(F)(F)F)c(F)c3)nc2C)ccc1OCC(=O)O  cell viability            %    106
 3  CN1[C@@H]2CC[C@H]1C[C@@H](OC(=O)[C@H](CO)c1ccccc1)C2  cell viability            %    104
 4  CCNC(=O)C[C@@H]1N=C(c2ccc(Cl)cc2)c2cc(OC)ccc2-n2c(C)nnc21  cell viability            %   38.9
 5                    O=[N+]([O-])c1ncc[nH]1  cell viability            %    101
 6  C=CC[C@]1(O)CC[C@H]2[C@@H]3CCC4=CC(=O)CCC4=C3C=C[C@@]21C  cell viability            %   99.9
 7                          COc1ccc(C=O)cc1O  cell viability            %    108
 8  CCO[C@H]1O[C@@H]2O[C@@]3(C)CC[C@H]4[C@H](C)CC[C@@H]([C@H]1C)[C@@]24OO3  cell viability            %   62.3
 9  CC(=O)O[C@H]1C(=O)[C@@]2(C)[C@H]([C@H](OC(=O)c3ccccc3)[C@]3(O)C[C@H](O)C(C)=C1C3(C)C)[C@]1(OC(C)=O)CO[C@@H]1C[C@@H]2O  cell viability            %    100
10  O=C(CC1NCCCC1O)Cn1cnc2cc(Br)c(Cl)cc2c1=O (stereo not given)  cell viability            %   8.89

// lookup cell viability | system=MARIMO | key= CC(C)NCC(O)c1ccccc1Cl (stereo not given) [Clorprenaline HCL]
98.2

Another compound to check: O=c1cccc2n1C[C@@H]1CNC[C@H]2C1
93.3

Another compound to check: O=c1[nH]c2ccccc2n1C1CCN(Cc2ccc(-c3[nH]c4cc5ncnc5cc4nc3-c3ccccc3)cc2)CC1
66.5

Another compound to check: CC(C)N(CCNC(=O)CN1CCCC1=O)C(C)C
98.4

Another compound to check: COc1cc([C@@H]2c3cc4c(cc3[C@@H](O)[C@H]3COC(=O)[C@H]23)OCO4)cc(OC)c1O [4'-Demethylepipodophyllotoxin]
26.8

====

test system: OCI-AML2; assay: cell viability relative to vehicle control; higher = less cytotoxic; conditions: 10 µM; SRSF2 genotype: P95H/wt
Where a name gives a salt, the structure may show the parent alone.
value type: cell viability (%)
Form entry: value (%) — number only.

Use these answered entries as a reference point.
molecule	output unit	cell viability
O=C([O-])C(Cl)Cl.[Na+] [Sodium dichloroacetate (DCA)]	%	96.7
Cc1cccc(C(C)c2c[nH]cn2)c1C (configuration not stated) [Medetomidine HCl]	%	97
O=c1ccc2c(O)c3ccoc3cc2o1 [Bergaptol]	%	106
CCN(Cc1ccc(Cl)nc1)/C(=C/[N+](=O)[O-])NC [Nitenpyram]	%	95.2

Could you share which cell viability value was measured for O=c1cccc2n1C[C@@H]1CNC[C@H]2C1 [Cytisine] ?
94.3

Another molecule to check: Cc1c(Cl)c(OCC(=O)N2CCN(C)CC2)nc2sc(C(=O)NC3CC3)c(N)c12
27.8

Another molecule to check: O=C(O[C@H]1C[N+]2(CCCOc3ccccc3)CCC1CC2)C(O)(c1cccs1)c1cccs1 [Aclidinium Bromide]
106

Another molecule to check: O=C(/C=C/c1ccccc1)OC[C@H]1O[C@@H](O[C@@H]2OC=C[C@H]3[C@H](O)[C@@H]4O[C@]4(CO)[C@@H]23)[C@H](O)[C@@H](O)[C@@H]1O [Picroside I]
104

Another molecule to check: Cc1cccc([C@H](C)c2c[nH]cn2)c1C [Dexmedetomidine]
114

Another molecule to check: CNCC(O)c1ccc(O)cc1 (configuration not stated) [Synephrine (Oxedrine)]
98.4

====

# cell viability per record follows
test system: MOLM14; assay: cell viability relative to vehicle control; higher = less cytotoxic; conditions: 10 µM; SRSF2 genotype: SRSF2 P95H/wt
Form entry: value (%) — number only.

Use these answered entries as a reference point.
> print(dat)
                                   compound      value.type  output.unit  value
1  CC(C)C(Br)C(=O)NC(N)=O (stereo not given) [Bromisoval]  cell viability            %     92
2       CCCN1CCO[C@@H]2c3cc(O)ccc3OC[C@H]21  cell viability            %    104
3  COc1cc2c(cc1O)CC1NCCc3cc(OC)c(O)c-2c31 (stereo not given) [Norisoboldine]  cell viability            %   99.3
4  CC(O)(CS(=O)(=O)c1ccc(F)cc1)C(=O)Nc1ccc(C#N)c(C(F)(F)F)c1 (stereo not given) [Bicalutamide (Casodex)]  cell viability            %   98.7

Now consider the entry below.
Could you share which cell viability value was measured for NC(=O)CN1CC(c2ccccc2)CC1=O (stereo not given) [Phenylpiracetam] ?
99.8

====

test system: K562; assay: cell viability relative to vehicle control; higher = less cytotoxic; settings: 10 µM; SRSF2 genotype: SRSF2 wt/wt
Counter-ions that a name gives are not always drawn.
# cell viability per record follows
Form entry: value (%) — number only.

Use these answered entries as a reference point.
> print(dat)
                                   compound  value
1  CC1(C)C(=O)N(c2ccc(C#N)c(C(F)(F)F)c2)C(=O)N1CCCCO   92.3
2  N#CC=C1C=CC(O)C(O)C1OC1OC(CO)C(O)C(O)C1O (configuration not stated) [Lithospermoside]   84.3
3  CCC1=C[C@H]2CN3CCc4c([nH]c5ccccc45)[C@](C(=O)OC)(C2)[C@H]13 [Catharanthine]   95.2
4  C[C@@]12N[C@@H](Cc3ccccc31)c1ccccc12 [(-)-MK 801 maleate]    108
5  C[C@@]12C[C@@H](c3ccoc3)OC(=O)[C@@H]1CC[C@]1(C)[C@H]2[C@@H]2C=C[C@@]1(O)C(=O)O2 [Columbin]    102
6  CN1CCc2cc3c(cc2C1C1OC(=O)c2c1ccc1c2OCO1)OCO3 (single isomer, unassigned; (+)) [(+)-Bicuculline]   96.5

Now consider the entry below.
Could you share which cell viability value was measured for CCN1CCN(C(=O)Cc2ccc(Nc3ncc(F)c(Nc4ccc(C(=O)Nc5ccccc5Cl)cc4)n3)cc2)CC1 [Aurora A Inhibitor I] ?
15.3
